# Read-out: TIMP metallopeptidase inhibitor 2 (TIMP2), TIMP2 (gene 7077)
# PROTOCOL_DETAILS: BSK_KF3CT_TIMP2: BioMAP Diversity Plus: KF3CT Assay for TIMP metallopeptidase inhibitor 2 (TIMP2) Biomarker Activity (AID 2283071)
# SETTINGS: primary human keratinocytes with fibroblasts; actives raise or lower the signal
Activity calls are given as the source filed them. The calls were made as follows: active = hit-call score of the fitted dose curve at least 0.9, where 1 is the maximum; inactive = score below 0.9.
Tick one outcome: active, inactive

Task: Call for entry `c1ccc2ccccc2c1` :
Output: inactive

Task: Call for entry `c1ccc2n[nH]nc2c1` :
Output: inactive

Task: Call for entry `CN(C[C@@H](CC[N+]12CCC(C3CCCCC3)(CC1)CC2)c1ccc(Cl)c(Cl)c1)C(=O)c1cc(C(F)(F)F)cc(C(F)(F)F)c1` :
Output: active

Task: Call for entry `CCCCOC(=O)CC(CC(=O)OCCCC)(OC(C)=O)C(=O)OCCCC` :
Output: inactive

Task: Call for entry `O=CCCCC=O` :
Output: active

Task: Call for entry `CC(C)(c1cc(Br)c(O)c(Br)c1)c1cc(Br)c(O)c(Br)c1` :
Output: active

Task: Call for entry `CCCCCCCCN(C)CCCCCCCC` :
Output: inactive

Task: Call for entry CC(O)CC(C)(C)O (stereo not drawn) :
Output: inactive

Task: Call for entry `CN(C)c1ccc(C(=C2C=CC(=[N+](C)C)C=C2)c2ccc(N(C)C)cc2)cc1` :
Output: active

Task: Call for entry `Oc1ccccc1` :
Output: inactive

Task: Call for entry `CCO[Si](CCCNC(N)=O)(OCC)OCC` :
Output: inactive

Task: Call for entry `CCCCCCCCCC(=O)O` :
Output: inactive

Task: Call for entry `Cc1cn([C@H]2C[C@H](N=[N+]=[N-])[C@@H](CO)O2)c(=O)[nH]c1=O` :
Output: inactive

Data origin, for the record: PubChem BioAssay (EPA / NIEHS)
